Tested on: Escherichia coli TOP10
Test: shrunken log2 fold change of peptide-encoding DNA abundance (4.5 h post-induction vs induction); higher = less antimicrobial activity (less host growth inhibition)
Conditions: time post-induction: 4.5 h; library: site-saturation at positions 5, 18, 19, 20
Please enter criterion met where shrunken log2 fold change is greater than or equal to -0.004, and criterion not met where it is lower.

Look over these answered cases.
{"Macromolecule Sequence": "RRIRTRPPRLPRPRPRPMSRPRP", "Assigned Label": "criterion not met"}
{"Macromolecule Sequence": "RRIRVRPPRLPRPRPRPSNHPRP", "Assigned Label": "criterion not met"}
{"Macromolecule Sequence": "RRIRNRPPRLPRPRPRPDPYPRP", "Assigned Label": "criterion not met"}
{"Macromolecule Sequence": "RRIRRRPPRLPRPRPRPGKYPRP", "Assigned Label": "criterion not met"}
{"Macromolecule Sequence": "RRIRYRPPRLPRPRPRPRGTPRP", "Assigned Label": "criterion met"}
{"Macromolecule Sequence": "RRIRLRPPRLPRPRPRPVHNPRP", "Assigned Label": "criterion not met"}

Determine whether this sequence has shrunken log2 fold change no lower than -0.004: `RRIRKRPPRLPRPRPRPGTHPRP` criterion met

Could you do the same for `RRIRMRPPRLPRPRPRPIYAPRP` , please? criterion met

Could you do the same for `RRIRPRPPRLPRPRPRPAKMPRP` , please? criterion met

###

Test system: Escherichia coli TOP10
Assay: shrunken log2 fold change of peptide-encoding DNA abundance (4.5 h post-induction vs induction); higher = less antimicrobial activity (less host growth inhibition)
Conditions: time post-induction: 4.5 h; library: site-saturation at positions 5, 18, 19, 20
// reported shrunken log2 fold change for each item listed
Please give only the number in your answer, with no unit.

Known results for sequences:
{"Macromolecule Sequence": "RRIRLRPPRLPRPRPRPIHIPRP", "shrunken log2 fold change": -0.374}
{"Macromolecule Sequence": "RRIRARPPRLPRPRPRPCMPPRP", "shrunken log2 fold change": -0.0783}
{"Macromolecule Sequence": "RRIRQRPPRLPRPRPRPSLAPRP", "shrunken log2 fold change": 0.404}
{"Macromolecule Sequence": "RRIRMRPPRLPRPRPRPQAKPRP", "shrunken log2 fold change": 0.0296}
{"Macromolecule Sequence": "RRIRTRPPRLPRPRPRPMLNPRP", "shrunken log2 fold change": -0.253}
{"Macromolecule Sequence": "RRIRLRPPRLPRPRPRPFEPPRP", "shrunken log2 fold change": 0.00273}

So what does the record say about shrunken log2 fold change for `RRIRKRPPRLPRPRPRPWKMPRP` ? 0.0749

Could you do the same for `RRIRHRPPRLPRPRPRPEIIPRP` , please? -0.496

Could you do the same for `RRIRTRPPRLPRPRPRPPHNPRP` , please? 0.0332

Could you do the same for `RRIRLRPPRLPRPRPRPNIVPRP` , please? -0.00437

Could you do the same for `RRIRERPPRLPRPRPRPLMWPRP` , please? -0.101

Could you do the same for `RRIRDRPPRLPRPRPRPNKWPRP` , please? -0.0744

Could you do the same for `RRIRRRPPRLPRPRPRPFGFPRP` , please? 0.197

Could you do the same for `RRIRRRPPRLPRPRPRPYQQPRP` , please? -0.000903

Could you do the same for `RRIRKRPPRLPRPRPRPCPVPRP` , please? -0.106

###

System: Escherichia coli TOP10
Test: shrunken log2 fold change of peptide-encoding DNA abundance (4.5 h post-induction vs induction); higher = less antimicrobial activity (less host growth inhibition)
Settings: time post-induction: 4.5 h; library: site-saturation at positions 5, 18, 19, 20
Please enter YES where shrunken log2 fold change is greater than or equal to -0.03, and NO where it is lower.

{"Macromolecule Sequence": "RRIRPRPPRLPRPRPRPYNSPRP", "Assigned Label": "NO"}

Determine whether this sequence has shrunken log2 fold change no lower than -0.03: `RRIRERPPRLPRPRPRPDNLPRP` YES

Could you do the same for `RRIRARPPRLPRPRPRPESWPRP` , please? YES

###

// reported shrunken log2 fold change for each item listed
Test system: Escherichia coli TOP10
Assay: shrunken log2 fold change of peptide-encoding DNA abundance (4.5 h post-induction vs induction); higher = less antimicrobial activity (less host growth inhibition)
Settings: time post-induction: 4.5 h; library: site-saturation at positions 5, 18, 19, 20
Please give only the number in your answer, with no unit.

Known results for sequences:
{"Macromolecule Sequence": "RRIRERPPRLPRPRPRPQSRPRP", "shrunken log2 fold change": 0.00145}
{"Macromolecule Sequence": "RRIRIRPPRLPRPRPRPPHAPRP", "shrunken log2 fold change": 0.162}
{"Macromolecule Sequence": "RRIRERPPRLPRPRPRPPAAPRP", "shrunken log2 fold change": 0.252}
{"Macromolecule Sequence": "RRIRVRPPRLPRPRPRPYGLPRP", "shrunken log2 fold change": -0.00518}
{"Macromolecule Sequence": "RRIRARPPRLPRPRPRPHIYPRP", "shrunken log2 fold change": -0.805}
{"Macromolecule Sequence": "RRIRPRPPRLPRPRPRPKEDPRP", "shrunken log2 fold change": 0.176}
{"Macromolecule Sequence": "RRIRMRPPRLPRPRPRPCPIPRP", "shrunken log2 fold change": -0.404}
{"Macromolecule Sequence": "RRIRGRPPRLPRPRPRPDAAPRP", "shrunken log2 fold change": 3.73}
{"Macromolecule Sequence": "RRIRPRPPRLPRPRPRPASFPRP", "shrunken log2 fold change": 0.0681}
{"Macromolecule Sequence": "RRIRYRPPRLPRPRPRPFWQPRP", "shrunken log2 fold change": -0.122}

I'm curious: which shrunken log2 fold change was measured for `RRIRMRPPRLPRPRPRPTPHPRP` tested on Escherichia coli TOP10? 1.13

Could you do the same for `RRIRHRPPRLPRPRPRPLDKPRP` , please? -0.0374

Could you do the same for `RRIRTRPPRLPRPRPRPQFHPRP` , please? -0.541

Could you do the same for `RRIRQRPPRLPRPRPRPRWYPRP` , please? -0.172

Could you do the same for `RRIRYRPPRLPRPRPRPWMWPRP` , please? 0.0261

###

System: Escherichia coli TOP10
Assay: shrunken log2 fold change of peptide-encoding DNA abundance (4.5 h post-induction vs induction); higher = less antimicrobial activity (less host growth inhibition)
Conditions: time post-induction: 4.5 h; library: site-saturation at positions 5, 18, 19, 20
// reported shrunken log2 fold change for each item listed
Please give only the number in your answer, with no unit.

Known results for sequences:
{"Macromolecule Sequence": "RRIRNRPPRLPRPRPRPVSHPRP", "shrunken log2 fold change": -0.0709}
{"Macromolecule Sequence": "RRIRSRPPRLPRPRPRPSQQPRP", "shrunken log2 fold change": 0.0577}
{"Macromolecule Sequence": "RRIRIRPPRLPRPRPRPDIKPRP", "shrunken log2 fold change": -0.576}
{"Macromolecule Sequence": "RRIRCRPPRLPRPRPRPHIWPRP", "shrunken log2 fold change": -0.6}
{"Macromolecule Sequence": "RRIRTRPPRLPRPRPRPTDVPRP", "shrunken log2 fold change": 0.284}
{"Macromolecule Sequence": "RRIRIRPPRLPRPRPRPRFFPRP", "shrunken log2 fold change": -0.123}
{"Macromolecule Sequence": "RRIRPRPPRLPRPRPRPTSLPRP", "shrunken log2 fold change": 0.044}
{"Macromolecule Sequence": "RRIRRRPPRLPRPRPRPMFAPRP", "shrunken log2 fold change": 0.24}
{"Macromolecule Sequence": "RRIRCRPPRLPRPRPRPLKEPRP", "shrunken log2 fold change": 0.244}
{"Macromolecule Sequence": "RRIRVRPPRLPRPRPRPEEDPRP", "shrunken log2 fold change": 0.0704}

So what does the record say about shrunken log2 fold change for `RRIRERPPRLPRPRPRPELQPRP` ? -0.0137

###

// reported shrunken log2 fold change for each item listed
System: Escherichia coli TOP10;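 also: peptides expressed intracellularly from a pBAD plasmid library in pooled LB shake-flask culture, induced with 0.3% L-arabinose, DNA abundance read by NGS, three biological replicates, DESeq2 with apeglm shrinkage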
Experiment: shrunken log2 fold change of peptide-encoding DNA abundance (4.5 h post-induction vs induction); higher = less antimicrobial activity (less host growth inhibition)
Conditions: time post-induction: 4.5 h; library: site-saturation at positions 5, 18, 19, 20
Please give only the number in your answer, with no unit.

{"Macromolecule Sequence": "RRIRLRPPRLPRPRPRPMSLPRP", "Measured Result": -0.0224}
{"Macromolecule Sequence": "RRIRVRPPRLPRPRPRPNQTPRP", "Measured Result": -0.0286}
{"Macromolecule Sequence": "RRIRERPPRLPRPRPRPNMVPRP", "Measured Result": -0.61}
{"Macromolecule Sequence": "RRIRQRPPRLPRPRPRPHKYPRP", "Measured Result": -1.21}
{"Macromolecule Sequence": "RRIRIRPPRLPRPRPRPICKPRP", "Measured Result": -0.199}

So what does the record say about shrunken log2 fold change for `RRIRCRPPRLPRPRPRPRHVPRP` ? -0.0723

Could you do the same for `RRIRYRPPRLPRPRPRPTFIPRP` , please? -0.0922

Could you do the same for `RRIRWRPPRLPRPRPRPIPFPRP` , please? -0.102
